Molecular target: human GPR 119 receptor (Homo sapiens)
Construct: expressed in transfected cells
Sequence (Q8TDV5 1-335): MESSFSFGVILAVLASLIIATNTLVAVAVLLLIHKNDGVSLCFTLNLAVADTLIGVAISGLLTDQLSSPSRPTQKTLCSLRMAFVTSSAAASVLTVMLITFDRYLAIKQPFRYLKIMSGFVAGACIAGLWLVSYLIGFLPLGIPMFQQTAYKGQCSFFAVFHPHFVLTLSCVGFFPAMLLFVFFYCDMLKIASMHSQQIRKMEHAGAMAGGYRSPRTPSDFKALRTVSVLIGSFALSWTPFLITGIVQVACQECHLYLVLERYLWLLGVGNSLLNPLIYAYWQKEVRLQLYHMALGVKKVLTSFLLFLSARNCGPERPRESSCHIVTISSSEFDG
Assay: cAMP assay in stable cell line expressing recombinant human GPR 119 receptor
Type: cell-based
Conditions: 1 uM compound; DMSO = 1
For each entry below, report its Fold increase in cyclic AMP with respective to DMSO value.
Give bare numbers, in fold.

These recorded examples may help you get a feel for the data.
>>> obs_value("COC(=O)N1CCC(Oc2cc(Oc3cccc(/C=C4\\SC(=O)NC4=O)c3)ncn2)CC1")
2.19
>>> obs_value("CC(C)c1noc(N2CCC(Oc3cc(Oc4ccc(/C=C5\\SC(=O)NC5=O)cc4)ncn3)CC2)n1")
5.06
>>> obs_value("Cc1c(Oc2ccc(/C=C3\\SC(=O)NC3=O)cc2)ncnc1OC1CCN(C(=O)OC(C)(C)C)CC1")
3.96

Batch request: Fold increase in cyclic AMP with respective to DMSO for each of the following compounds.
1. CC(C)COC(=O)N1CCC(Oc2cc(Oc3ccc(/C=C4\SC(=O)NC4=O)cc3)ncn2)CC1 [Example 53]
2. CCc1cnc(N2CCC(Oc3cc(Oc4cccc(/C=C5\SC(=O)NC5=O)c4)ncn3)CC2)nc1
3. CCOC(=O)N1CCC(Oc2cc(Oc3cccc(/C=C4\SC(=O)NC4=O)c3)ncn2)CC1
4. Cc1c(Oc2ccc(/C=C3\SC(=O)NC3=O)cc2)ncnc1OC1CCN(c2ncccn2)CC1
5. Cc1c(Oc2cccc(/C=C3\SC(=O)NC3=O)c2)ncnc1OC1CCN(Cc2ccccc2)CC1

Output line:
1. 3.59
2. 4.77
3. 2.81
4. 2.57
5. 4.79
